Target: T1, human TGF-beta 1 (R&D Systems, Cat # 240-B/CF) (human, UniProt P01137 279-390)
T1 construct: They match K95 and residues 58-61 of mature numbering; also called TGF-β1; mature TGF-β1
T1 sequence (P01137 279-390 limits assumed): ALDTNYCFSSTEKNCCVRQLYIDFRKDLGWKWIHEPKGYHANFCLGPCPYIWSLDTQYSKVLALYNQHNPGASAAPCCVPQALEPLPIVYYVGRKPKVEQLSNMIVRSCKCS
Assay: KinExA 3000, equilibrium, Fab in solution
Form field: pKd (one value per entry).
Scale: pKd equals -log10([C]), with [C] in mol/L.

These solved cases illustrate the format of a correct answer.
1) Fab 21D1 (Fab, V domains shown, Fab with human constant regions (kappa light chain) from M13 expression vectors) VH: QVQLVQSGAEVKKPGASVKVSCKASGYTFTDYNIHWVRQAPGQGLEWMGYIYPYDGETGYNQKFKSRVTMTTDTSTSTAYMELRSLRSDDTAVYYCARGYRWFAYWGQGTLVTVSS VL: DIQMTQSPSSLSASVGDRVTITCRASSSVPYMHWFQQKPGKAPKSLIYATSNPAYGVPSRFSGSGSGTDFTLTISSLQPEDFATYYCQQWDLNPPAFGQGTKLEIK
12.05
2) Fab DM4 (Fab, V domains shown, Fab with human constant regions (kappa light chain)) VH: QVQLVQSGAEVKKPGASVKVSCKASGYDFTDYNIHWVRQAPGQGLEWMGYIYPYDGETGYNQKFKSRVTMTTDTSTSTAYMELRSLRSDDTAVYYCARGYRWLAYWGQGTLVTVSS VL: DIQMTQSPSSLSASVGDRVTITCRASSSVSYMHWYQQKPGKAPKPLIYATSNLAYGVPSRFSGSGSGTDFTLTISSLQPEDFATYYCQQWDLNPPAFGQGTKLEIK
11.92

Now examine the next entry.
Exercise: Given the binder Fab 23A3 (Fab, V domains shown, Fab with human constant regions (kappa light chain)) VH: QVQLVQSGAEVKKPGASVKVSCKASGYDFTDYNMVWVRQAPGQGLEWMGSIYPYDGETGYNQKFKSRVTMTTDTSTSTAYMELRSLRSDDTAVYYCARGYRAFEYWGQGTLVTVSS VL: DIQMTQSPSSLSASVGDRVTITCRASSSVPYMHWYQQKPGKAPKLLIYATSNPAYGVPSRFSGSGSGTDFTLTISSLQPEDFATYYCQQWDLNPPAFGQGTKLEIK , what is its reported pKd?
Key: 11.40
